# Study System: T1, CD22 (antigen in the Biacore assay) (human, UniProt P20273 20-687, limits assumed)
# T1 sequence: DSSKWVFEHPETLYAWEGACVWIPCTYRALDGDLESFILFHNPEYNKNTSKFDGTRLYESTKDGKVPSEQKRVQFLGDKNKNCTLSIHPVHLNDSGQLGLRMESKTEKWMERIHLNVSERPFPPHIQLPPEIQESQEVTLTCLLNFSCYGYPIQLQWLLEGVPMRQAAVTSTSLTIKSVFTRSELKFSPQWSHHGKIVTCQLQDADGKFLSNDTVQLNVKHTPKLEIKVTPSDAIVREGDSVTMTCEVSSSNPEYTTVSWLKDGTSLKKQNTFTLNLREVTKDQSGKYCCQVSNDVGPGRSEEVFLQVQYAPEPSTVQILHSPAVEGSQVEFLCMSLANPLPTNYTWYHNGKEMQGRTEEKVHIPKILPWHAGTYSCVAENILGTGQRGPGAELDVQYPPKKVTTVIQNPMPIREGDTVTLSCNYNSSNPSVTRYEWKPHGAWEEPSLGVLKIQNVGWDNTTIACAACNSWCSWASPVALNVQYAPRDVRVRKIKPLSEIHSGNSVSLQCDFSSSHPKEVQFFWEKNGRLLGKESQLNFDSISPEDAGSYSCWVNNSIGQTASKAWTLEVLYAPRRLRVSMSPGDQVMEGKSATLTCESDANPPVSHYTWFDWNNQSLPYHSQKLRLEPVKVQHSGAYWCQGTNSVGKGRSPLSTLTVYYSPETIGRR
# Test Method Notes: SPR (Biacore) at 37° C
Documented Kd across a set of binders
Please make sure the unit comes right after the number.

Known results for binders:
# Binder, Measured Parameter, Test Value
records = [
    ("humanized LL2 L1 + H11 (antibody, V domains shown, Human IgG1 frameworks; also called H11L1; VL1-VH11) VH: QVQLVQSGAEVKKPGASVKMSCKASGYTFTSYWLHWVRQAPGQRLEWMGYINPRNDYTEYNQNFKDRATITADTSASTAYMELSSLRSEDTAVYYCARRDITTFYWGQGTTLTVSS VL: DIVLTQSPDSLAVSAGERVTMNCKSSQSVLYSANHKNYLAWYQQKPGQPPKLLIYWASTRESGVPDRFSGSGSGTDFTLTISSVQAEDVAIYYCHQYLSSWTFGGGTKLEIK", "Kd", "0.0104 pM"),
    ("humanized LL2 L1 + H5 (antibody, V domains shown, Human IgG1 frameworks; also called H5L1) VH: QVQLQESGAEVKKPGASVKVSCKASGYTFTSYWLHWVRQAPGQRLEWIGYINPRNDYTEYSQKFQGRATLTADTSASTAYMELSSLRSEDTAVYYCARRDITTFYWGQGTTLTVSS VL: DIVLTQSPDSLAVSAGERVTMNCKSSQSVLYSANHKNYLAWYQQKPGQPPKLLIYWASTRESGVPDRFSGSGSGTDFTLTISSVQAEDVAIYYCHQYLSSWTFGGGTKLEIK", "Kd", "41 pM"),
    ("humanized LL2 L1 + H2 (antibody, V domains shown, Human IgG1 frameworks; also called H2L1) VH: QVQLQESGAEVKKPGASVKMSCKASGYTFTSYWLHWIRQAPGQRLEWIGYINPRNDYTKYSQKFQGRVTLTRDKSASTAYMELSSLRSEDTAVYYCARRDITTFYWGQGTTLTVSS VL: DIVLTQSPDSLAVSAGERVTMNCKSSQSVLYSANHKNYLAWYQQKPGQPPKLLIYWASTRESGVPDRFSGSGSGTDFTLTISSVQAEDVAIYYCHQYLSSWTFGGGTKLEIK", "Kd", "1720 pM"),
    ("humanized LL2 L1 + H9 (antibody, V domains shown, Human IgG1 frameworks; also called H9L1) VH: QVQLVQSGAEVKKPGASVKVSCKASGYTFTSYWLHWVRQAPGQRLEWIGYINPRNDYTEYNQNFKDRVTITADTSASTAYMELSSLRSEDTAVYYCARRDITTFYWGQGTTLTVSS VL: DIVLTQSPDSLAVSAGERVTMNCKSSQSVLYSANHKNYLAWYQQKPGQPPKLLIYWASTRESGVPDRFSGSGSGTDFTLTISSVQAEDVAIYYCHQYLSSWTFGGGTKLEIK", "Kd", "24.8 pM"),
]

// next item, Kd requested
Inquiry: // lookup Kd for humanized LL2 L1 + H6 (antibody, V domains shown, Human IgG1 frameworks; also called H6L1) VH: QVQLQQSGAEVKKPGASVKVSCKASGYTFTSYWLHWIRQAPGQRLEWMGYINPRNDYTEYNQNFKDRVTITRDTSASTAYMELSSLRSEDTAVYYCARRDITTFYWGQGTTLTVSS VL: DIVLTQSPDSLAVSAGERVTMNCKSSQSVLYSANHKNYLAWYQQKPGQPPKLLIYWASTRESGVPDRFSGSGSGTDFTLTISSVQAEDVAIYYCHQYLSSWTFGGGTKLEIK
Reply text: 0.17 pM

Data provenance: patent US20220177581A1
